- System: MC-38
- Experiment Notes: Cytotoxicity against mouse Colon 38 cells at 15 ug by disk diffusion assay
- Format: functional
Property Measured: inhibition zone (IZ) (Zone units)
Record the value in Zone units, omitting the unit from your answer.

Challenge: Fill in the recorded inhibition zone (IZ) for this compound, with MC-38 as test system: CCCCCCCCCC[C@H](O)[C@H]1CC[C@@H]([C@@H]2CC[C@H]([C@H](O)CCCCCCCCCC[C@@H](O)CC3=C[C@H](C)OC3=O)O2)O1
Response given: 1000

Challenge: Fill in the recorded inhibition zone (IZ) for this compound, with MC-38 as test system: CCCCCCCCCC[C@@H](O)[C@@H]1CC[C@@H]([C@@H]2CC[C@@H]([C@H](O)CCCCCCCCCC(O)CC3=CC(C)OC3=O)O2)O1 (stereo partly specified)
Response given: 850

Challenge: Fill in the recorded inhibition zone (IZ) for this compound, with MC-38 as test system: CCCCCCCCCC[C@@H](O)[C@H]1CC[C@H]([C@H]2CC[C@H]([C@@H](O)CCCCCCCCCC[C@@H](O)CC3=C[C@H](C)OC3=O)O2)O1
Response given: 750

Challenge: Fill in the recorded inhibition zone (IZ) for this compound, with MC-38 as test system: CCCCCCCCCC[C@@H](O)[C@H]1CC[C@@H]([C@@H]2CC[C@H]([C@@H](O)CCCCCCCCCC[C@@H](O)CC3=C[C@H](C)OC3=O)O2)O1
Response given: 800

Challenge: Fill in the recorded inhibition zone (IZ) for this compound, with MC-38 as test system: CCCCCCC[C@H](O)CC[C@H](O)[C@H]1CC[C@H]([C@H]2CC[C@H]([C@@H](O)CCCCCCCCCC[C@@H](O)CC3=C[C@H](C)OC3=O)O2)O1
Response given: 900

Challenge: Fill in the recorded inhibition zone (IZ) for this compound, with MC-38 as test system: CCCCCCCCCC[C@H](O)[C@H]1CC[C@H]([C@H]2CC[C@H]([C@@H](O)CCCCCCCCCC[C@@H](O)CC3=C[C@H](C)OC3=O)O2)O1
Response given: 800

Challenge: Fill in the recorded inhibition zone (IZ) for this compound, with MC-38 as test system: CCCCCCCCCC[C@@H](O)[C@H]1CC[C@@H]([C@H]2CC[C@H]([C@H](O)CCC[C@H](O)CCCCCCCC3=C[C@H](C)OC3=O)O2)O1
Response given: 800

Challenge: Fill in the recorded inhibition zone (IZ) for this compound, with MC-38 as test system: CCCCCCCCCC[C@H](O)[C@H]1CC[C@@H]([C@@H]2CC[C@H]([C@@H](O)CCCCCCCCCC[C@@H](O)CC3=C[C@H](C)OC3=O)O2)O1
Response given: 900

Challenge: Fill in the recorded inhibition zone (IZ) for this compound, with MC-38 as test system: CCCCCCCCCCC(O)C1CCC(C2CCC(C(O)CCCCCCCC[C@H](O)CC3=C[C@@H](C)OC3=O)O2)O1 (stereo partly specified)
Response given: 900

Challenge: Fill in the recorded inhibition zone (IZ) for this compound, with MC-38 as test system: CCCCCCC[C@H](O)CC[C@H](O)[C@H]1CC[C@H]([C@H]2CC[C@H]([C@H](O)CCCCCCCCCC[C@@H](O)CC3=C[C@H](C)OC3=O)O2)O1
Response given: 950

Challenge: Fill in the recorded inhibition zone (IZ) for this compound, with MC-38 as test system: CCCCCCCCCC[C@@H](O)[C@H]1CC[C@@H]([C@@H]2CC[C@H]([C@H](O)CCCCCCCCCC[C@@H](O)CC3=C[C@H](C)OC3=O)O2)O1
Response given: 800
